The reported numbers originate from PubChem BioAssay AID1159580.

compounds and their reported normalized growth
assay: chemical genetic growth profiling, strain panel (AID 1159580);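 further: tested at 20 µM; growth read once vehicle control cultures reached saturation at 30 °C; 1 = growth at the plate median or of vehicle wells; lower values mean less growth of the strain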; settings: S. cerevisiae deletion strains, growth OD, locus YAL013W, strain DEP1, stronger effect = lower value
The whole screen tested about 5,500 compounds, of which about 2,000 (36%) were called active. Roughly 18% stayed inconclusive and do not appear here. This is one part of the list.
Property Label: normalized growth

>>> df
                                   compound  measured
0          C/C(=N/O)c1sc2nc(C(F)(F)F)nn2c1C     0.954
1          COC(=O)CCCCCCCC(=O)Nc1ccc(Cl)cc1     0.999
2                     S=C1NCN(CCN2CCCC2)CN1         1
3  COc1ccc(C2CNC(=O)C2)cc1OC1CCCC1 (configuration not stated)      1.01
4           O=C(CSc1ccc(Cl)cc1)Nc1ccc(F)cc1     0.909
5   O=[N+]([O-])c1ccc(S(=O)(=O)N2CCCCC2)cc1     0.994
6               CN(C)CCN(Cc1ccccc1)c1ccccn1     0.988

###

assay: chemical genetic growth profiling, strain panel (AID 1159580); conditions: S. cerevisiae deletion strains, growth OD, locus YHR129C, strain ARP1
The whole screen tested about 5,500 compounds, of which about 2,000 (36%) were called active. Not shown: some 18% with an inconclusive outcome. Rule as the data show it: active = normalized growth mostly below about 0.91 (no sharp cut-off); inconclusive = no clear call, values can overlap the other calls; inactive = mostly above about 0.92. This is one part of the list.
Labels: active, inactive

Molecule	Label
COC(=O)C[C@H]1C2(C)CC34OC5(C)O[C@@]6([C@H](OC)C(OC(=O)C(C)C)[C@]7(C)C(/C(=C(/OC)C(C)C)C(=O)O[C@H]7c7ccoc7)[C@@]6(O5)[C@H](OC)[C@@]3(OC)C2OC(C)=O)[C@]14C (some centres not stated)	inactive
O=C(Oc1cc(OC(=O)c2ccccc2)c2c(c1)O[C@H](c1ccc(OC(=O)c3ccccc3)c(OC(=O)c3ccccc3)c1)[C@@H](OC(=O)c1ccccc1)C2)c1ccccc1	inactive
COc1cc(OC)c2c(c1)O[C@H](c1cc(OC)c(OC)c(OC)c1)[C@H](OC(=O)c1cc(OC)c(OC)c(OC)c1)C2	inactive
CC(=O)Oc1cc(OC(C)=O)c2c(c1)O[C@H](c1ccc(OC(C)=O)c(OC(C)=O)c1)[C@@H](OC(C)=O)C2	inactive
NCCc1cnc[nH]1	inactive
O=C(Oc1cc(O)cc2c1C[C@@H](OC(=O)c1cc(O)c(O)c(O)c1)[C@@H](c1cc(O)c(O)c(O)c1)O2)c1cc(O)c(O)c(O)c1	active
O=C(O[C@@H]1Cc2c(O)cc(O)cc2O[C@@H]1c1cc(O)c(O)c(O)c1)c1cc(O)c(O)c(O)c1	active

###

experiment: chemical genetic growth profiling, strain panel (AID 1159580);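 further: tested at 20 µM; growth read once vehicle control cultures reached saturation at 30 °C; 1 = growth at the plate median or of vehicle wells; lower values mean less growth of the strain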; settings: S. cerevisiae deletion strains, growth OD, locus YER111C, strain swi4
The campaign covered roughly 5,500 compounds. About 2,000 (36%) were called active. About 18% were inconclusive and are not listed. Cut-off read from the data, not from the text of the source: active = normalized growth mostly below about 0.91 (no sharp cut-off); inconclusive = no clear call, values can overlap the other calls; inactive = mostly above about 0.92. The list shows a part of the results.
Labels: active, inactive

Molecule	Label
N=c1ccn2c(n1)OC1C(O)C(CO)OC12 (stereo not drawn)	inactive
O=C(/C=C/c1ccc(O)c(O)c1)OC(Cc1ccc(O)c(O)c1)C(=O)O (stereo not drawn)	inactive
CN(C)CCOC(c1ccc(Cl)cc1)c1ccccn1 (stereo not drawn)	inactive
COc1cc2nc(N(C)CCCNC(=O)C3CCCO3)nc(N)c2cc1OC (stereo not drawn)	inactive
CC1(O)CC2C(CC1O)C2(C)C (stereo not drawn)	inactive
CCN1CCCC(OC(=O)C(c2ccccc2)c2ccccc2)C1 (stereo not drawn)	inactive
OCC(O)CN1CCN(c2ccccc2)CC1 (stereo not drawn)	inactive
C#CCN(C)Cc1ccccc1	inactive
CCC(C)C(=O)O[C@@H]1C[C@@]2(C)[C@H](c3ccoc3)OC(=O)CC23OC2(C)OC34[C@H](OC(=O)C(C)C)[C@@]3(O)[C@@H](OC(=O)C5(C)OC5C)[C@@]5(C)C[C@]3(O)[C@@](C)([C@H]5CC(=O)OC)C14O2 (stereo partly drawn)	inactive
CCCCCCCCCCCCCc1ccco1	inactive
CCC(C)C(=O)O[C@@H]1C[C@@]2(C)[C@H](c3ccoc3)OC(=O)CC23OC2(C)O[C@]14[C@]1(C)[C@@H](CC(=O)OC)C5(C)CC1(O)[C@](O)(C5OC(=O)C1(C)OC1C)[C@@H](OC(C)=O)[C@]34O2 (stereo partly drawn)	inactive
CN(C)CCN(Cc1cccs1)c1ccccn1	inactive
CC#CC1(O)CCC2C3CCC4=CC(=O)CCC4=C3C(c3ccc(N(C)C)cc3)CC21C (stereo not drawn)	inactive
Cc1ccc(S(=O)(=O)NC(=O)NN2CCCCCC2)cc1	inactive
NCCCS(=O)(=O)O	inactive
CN(C)CCN(Cc1ccccc1)c1ccccn1	inactive
CN(C)CCCC1(c2ccc(F)cc2)OCc2cc(C#N)ccc21 (stereo not drawn)	inactive
Cc1ccccc1C(OCCN(C)C)c1ccccc1 (stereo not drawn)	inactive
O=C(c1ccc(OCCN2CCCCC2)cc1)c1c(-c2ccc(O)cc2)sc2cc(O)ccc12	inactive
O=C1NCC2(CCN(CCc3ccccc3)CC2)O1	inactive
NCCS(=O)(=O)O	inactive
O=S(=O)(O)CCS	inactive
O=C(/C=C/c1ccc(O)c(O)c1)OCCc1ccccc1	active

###

compounds and their reported normalized growth
experiment: chemical genetic growth profiling, strain panel (AID 1159580);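 further: tested at 20 µM; growth read once vehicle control cultures reached saturation at 30 °C; 1 = growth at the plate median or of vehicle wells; lower values mean less growth of the strain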; conditions: S. cerevisiae deletion strains, growth OD, locus YAL021C, strain ccr4, stronger effect = lower value
About 2,000 (36%) of roughly 5,500 compounds were called active. Roughly 18% stayed inconclusive and do not appear here. The list shows a part of the results.
Property Label: normalized growth

                                   compound     property_label  measured
0  CC1(O)CC2C(CC1O)C2(C)C (stereo unspecified)  normalized growth     0.988
1            O=C1NCC2(CCN(CCc3ccccc3)CC2)O1  normalized growth     0.973
2  Clc1ccc(C(OCCN2CCCCC2)c2ccccc2)cc1 (stereo unspecified)  normalized growth     0.954
3     COc1ccc(C(=O)CC(=O)O)c2c1C=CC(C)(C)O2  normalized growth         1
4  CC#CC1(O)CCC2C3CCC4=CC(=O)CCC4=C3C(c3ccc(N(C)C)cc3)CC21C (stereo unspecified)  normalized growth     0.982
5  Cc1ccccc1C(OCCN(C)C)c1ccccc1 (stereo unspecified)  normalized growth     0.977

###

experiment: chemical genetic growth profiling, strain panel (AID 1159580);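 further: tested at 20 µM; growth read once vehicle control cultures reached saturation at 30 °C; 1 = growth at the plate median or of vehicle wells; lower values mean less growth of the strain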; settings: S. cerevisiae deletion strains, growth OD, locus YPL078C, strain atp4
In all, about 5,500 compounds went through this assay and about 2,000 (36%) were called active. Another 18% or so got no clear call; they are omitted. Rule as the data show it: active = normalized growth mostly below about 0.91 (no sharp cut-off); inconclusive = no clear call, values can overlap the other calls; inactive = mostly above about 0.92. The list shows a part of the results.
Labels: active, inactive

Compound	Label
Cc1ccc(C(=O)Nc2ccc(S(=O)(=O)O)c3cc(S(=O)(=O)O)cc(S(=O)(=O)O)c23)cc1NC(=O)c1cccc(NC(=O)Nc2cccc(C(=O)Nc3cc(C(=O)Nc4ccc(S(=O)(=O)O)c5cc(S(=O)(=O)O)cc(S(=O)(=O)O)c45)ccc3C)c2)c1	inactive
N[C@@H](Cc1ccc(N(CCCl)CCCl)cc1)C(=O)O	inactive
COc1ccc2c(c1)OC/C(=C\c1ccc(OC)c(O)c1)C2=O	active
CCN1CCCC(OC(=O)C(c2ccccc2)c2ccccc2)C1 (stereo not given)	inactive
C=C[C@@](C)(O)CCC1C(=C)C[C@H](O)C2C(C)(C)CCCC12C (stereo not given in full)	inactive
CN1C2CCC1CC(OC(c1ccccc1)c1ccccc1)C2 (stereo not given)	inactive
Cc1[nH]c2ccccc2c1CN(C)C	inactive
O=S(=O)(O)CCS	inactive
CCC(C)C(=O)O[C@@H]1C[C@@]2(C)[C@H](c3ccoc3)OC(=O)CC23OC2(C)O[C@]14[C@]1(C)[C@@H](CC(=O)OC)C5(C)CC1(O)[C@](O)(C5OC(=O)C1(C)OC1C)[C@@H](OC(C)=O)[C@]34O2 (stereo not given in full)	inactive
C[C@H]1COc2c(N3CCN(C)CC3)c(F)cc3c(=O)c(C(=O)O)cn1c23	inactive
CCn1cc(C(=O)O)c(=O)c2cc(F)c(N3CCNCC3)nc21	inactive
C=C[C@@](C)(O)CCC1C(=C)CCC2[C@@](C)(CO)CCC[C@]12C (stereo not given in full)	inactive
COC(=O)C[C@H]1C2(C)CC34OC5(C)O[C@@]6([C@H](OC)C(OC(=O)C(C)C)[C@]7(C)C(/C(=C(/OC)C(C)C)C(=O)O[C@H]7c7ccoc7)[C@@]6(O5)[C@H](OC)[C@@]3(OC)C2OC(C)=O)[C@]14C (stereo not given in full)	inactive
NS(=O)(=O)c1cc2c(cc1Cl)NC=NS2(=O)=O	inactive
Nc1nc(=S)c2[nH]cnc2[nH]1	inactive
COc1ccc(C(c2ccc(OC)cc2)C(Cl)(Cl)Cl)cc1	inactive
CCN(CC)Cc1ccc(Nc2ccnc3cc(Cl)ccc23)cc1O	inactive
OCCc1ccccc1	inactive
COC(=O)/C=C/C(C)=C/C=C/C(C)=C/C=C/C=C(C)/C=C/C=C(C)/C=C/C(=O)O	inactive
C=C[C@@](C)(O)CCC1C(=C)C[C@H](OC(C)=O)C2C(C)(C)CCCC12C (stereo not given in full)	inactive
COc1cc([C@@H]2c3cc4c(cc3[C@@H](O)C3COC(=O)C32)OCO4)cc(OC)c1O (stereo not given in full)	inactive
OCC(O)CN1CCN(c2ccccc2)CC1 (stereo not given)	inactive
O=C(c1ccc(OCCN2CCCCC2)cc1)c1c(-c2ccc(O)cc2)sc2cc(O)ccc12	inactive
Cc1ncc(CNC(=O)N(CCCl)N=O)c(N)n1	inactive
C=C1CCC2[C@](C)(CO)[C@H](O)CC[C@@]2(C)[C@@H]1C/C=C1/C(=O)OC[C@H]1O (stereo not given in full)	inactive
C=CCc1ccc(O)c(OC)c1	inactive
O=C(Oc1cc(OC(=O)c2ccccc2)c2c(c1)O[C@H](c1ccc(OC(=O)c3ccccc3)c(OC(=O)c3ccccc3)c1)[C@@H](OC(=O)c1ccccc1)C2)c1ccccc1	inactive
CO/N=C1/CN(c2nc3c(cc2F)c(=O)c(C(=O)O)cn3C2CC2)CC1CN (stereo not given)	inactive
O=C(NC(=O)c1ccccc1Cl)Nc1ccc(OC(F)(F)F)cc1	inactive
CCCCC/C=C/CCC(=O)N[C@H]1[C@H](Oc2c3cc4cc2Oc2ccc(cc2Cl)[C@@H](O[C@@H]2O[C@H](CO)[C@@H](O)[C@H](O)[C@H]2NC(C)=O)[C@@H]2NC(=O)[C@H](NC(=O)[C@@H]4NC(=O)[C@H]4NC(=O)C(Cc5ccc(c(Cl)c5)O3)NC(=O)[C@H](N)c3ccc(O)c(c3)Oc3cc(O)cc4c3)c3ccc(O)c(c3)-c3c(OC4O[C@H](CO)[C@@H](O)[C@H](O)[C@@H]4O)cc(O)cc3[C@@H](C(=O)O)NC2=O)O[C@H](CO)[C@@H](O)[C@@H]1O (stereo not given in full)	inactive
O=C(O)CCCc1ccccc1	inactive
O=C(O[C@@H]1Cc2c(O)cc(O)cc2O[C@@H]1c1ccc(O)c(O)c1)c1cc(O)c(O)c(O)c1	inactive
NCCS(=O)(=O)O	inactive
COc1cc([C@@H]2c3cc4c(cc3C(OC3O[C@@H]5COC(C)O[C@H]5[C@H](O)[C@H]3O)C3COC(=O)[C@@H]32)OCO4)cc(OC)c1O (stereo not given in full)	inactive
CN1C2C[C@H](OC(=O)[C@H](CO)c3ccccc3)C[C@H]1[C@@H](O)C2	inactive
